Molecular target: 5-hydroxytryptamine receptor 1A (Homo sapiens, UniProt P08908)
Sequence (P08908 whole entry): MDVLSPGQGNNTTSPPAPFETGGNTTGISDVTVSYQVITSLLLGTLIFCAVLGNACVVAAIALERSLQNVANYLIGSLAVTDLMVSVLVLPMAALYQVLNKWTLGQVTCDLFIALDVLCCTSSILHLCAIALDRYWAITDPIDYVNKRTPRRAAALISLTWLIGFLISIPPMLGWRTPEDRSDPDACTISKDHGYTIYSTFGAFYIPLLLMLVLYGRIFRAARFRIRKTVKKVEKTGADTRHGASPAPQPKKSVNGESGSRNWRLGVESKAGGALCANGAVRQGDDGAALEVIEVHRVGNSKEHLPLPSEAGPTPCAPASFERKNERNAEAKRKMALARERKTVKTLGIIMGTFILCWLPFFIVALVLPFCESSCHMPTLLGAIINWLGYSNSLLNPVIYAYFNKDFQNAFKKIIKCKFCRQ
measurement.type: pKi
Scale note: pKi = -log10(concentration in M).

compound.string | pKi
NC1=NC2(CCCCC2)NC(Nc2cccc(Br)c2)=N1 | 6.49

Attention now turns to another entry.
pKi lookup needed for CCOC(=O)c1cccc(NC2=NC(N)=NC3(CCCCC3)N2)c1 , thanks. 6.15
